Test system: HIV
Procedure Summary: Antiviral activity: inhibition of the cytopathic effect of HIV in MT4 cells
Assay type: cell-based
Applied Conditions: MT4 cells; 50% inhibition of the cytopathic effect of HIV; read-out: EC50
Observable: pEC50
In textbook form, pEC50 equals minus log to base ten of the concentration in mol/L.

Known results for compounds:
[[record]]
chemical_structure = "COc1ccc(CN2CCN(C[C@@H](O)[C@H](Cc3ccccc3)NC(=O)[C@@H](NC(=O)OCc3cnc(C)s3)C(C)C)[C@H](C(=O)NC(C)(C)C)C2)cc1OC"
target = "HIV"
recorded_result = 7.96

[[record]]
chemical_structure = "CCc1ncc(COC(=O)N[C@H](C(=O)N[C@@H](Cc2ccccc2)[C@H](O)CN2CCN(Cc3ccc(OC)c(OC)c3)C[C@H]2C(=O)NC(C)(C)C)C(C)C)s1"
target = "HIV"
recorded_result = 7.80

[[record]]
chemical_structure = "CC(C)c1nc(COC(=O)N[C@H](C(=O)N[C@@H](Cc2ccccc2)[C@H](O)CN2CCN(Cc3ccc4ccccc4n3)C[C@H]2C(=O)NC(C)(C)C)C(C)C)cs1"
target = "HIV"
recorded_result = 7.85


Req: So what does the record say about pEC50 for CC(C)c1nc(COC(=O)N[C@H](C(=O)N[C@@H](Cc2ccccc2)[C@H](O)CN2CCN(Cc3ccccc3)C[C@H]2C(=O)NC(C)(C)C)C(C)C)cs1 ?
Resp: 7.66

Req: Returns the measured pEC50 for the input compound. Input: CCc1nc(COC(=O)N[C@H](C(=O)N[C@@H](Cc2ccccc2)[C@H](O)CN2CCN(Cc3ccc(OC)c(OC)c3)C[C@H]2C(=O)NC(C)(C)C)C(C)C)cs1
Resp: 7.72

Req: For the compound shown here, CC(C)c1nc(COC(=O)N[C@H](C(=O)N[C@@H](Cc2ccccc2)[C@H](O)CN2CCN(Cc3ccc4c(c3)OCO4)C[C@H]2C(=O)NC(C)(C)C)C(C)C)cs1 , give the reported pEC50.
Resp: 8.52

Req: Fill in the blank: the reported pEC50 of CC(C)c1ncc(CN(C)C(=O)N[C@H](C(=O)N[C@@H](Cc2ccccc2)[C@H](O)CN2C[C@H]3CCCC[C@H]3C[C@H]2C(=O)NC(C)(C)C)C(C)C)s1 is ____.
Resp: 7.24

Req: For the compound CC(C)c1nc(COC(=O)N[C@H](C(=O)N[C@@H](Cc2ccccc2)[C@H](O)CN2CCN(Cc3cccc(O)c3)C[C@H]2C(=O)NC(C)(C)C)C(C)C)cs1 , what pEC50 is on record?
Resp: 7.40

Req: # get_value(readout='pEC50', item= CC(C)c1nc(COC(=O)N[C@H](C(=O)N[C@@H](Cc2ccccc2)[C@H](O)CN2CCN(Cc3ccc(F)cc3)C[C@H]2C(=O)NC(C)(C)C)C(C)C)cs1 )
Resp: 7.68
